Test system: Oryza sativa
Assay: Effect on Oryza sativa (rice) assessed as growth rate at 10 uM relative to control
Type: organism-based
Settings: in vivo
RECORDED_ENDPOINT: Activity

C[C@H](NC(=O)Nc1cccc(Br)c1)c1ccccc1 : 99%
CCCc1ccc(NC(=O)N[C@H](C)c2ccccc2)cc1 : 35%
Cc1ccccc1NC(=O)N[C@H](C)c1ccccc1 : 99%

INPUT: Any idea what Activity was measured for `C[C@@H](NC(=O)Nc1cccc(Br)c1)c1ccccc1` ?
OUTPUT: 99%

INPUT: Then what about the compound `C[C@@H](NC(=O)Nc1cc(C(F)(F)F)ccc1F)c1ccccc1` ?
OUTPUT: 60%

INPUT: Then what about the compound `C[C@@H](NC(=O)Nc1ccc(C(F)(F)F)cc1)c1ccccc1` ?
OUTPUT: 82%

INPUT: Then what about the compound `CC(=O)c1ccc(NC(=O)N[C@H](C)c2ccccc2)cc1` ?
OUTPUT: 84%

INPUT: Then what about the compound `CCCCCc1ccc(NC(=O)N[C@@H](C)c2ccccc2)cc1` ?
OUTPUT: 93%
